B1: E3 ubiquitin-protein ligase Midline-1, residues 172 to 214; numbered along this chain, O15344 (parent)
chain: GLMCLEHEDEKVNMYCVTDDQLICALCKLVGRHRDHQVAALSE

- Variants of: B1
- EXPERIMENTAL_DETAILS: abundance fitness (aPCA) (normalised: wild type 0, dead -1); higher = more abundant; growth selection in yeast, the domain comes from the species named
- PARTICULARS: Homo sapiens
Measured abundance fitness, listed per entry.

# CHAIN_SEQUENCE, abundance fitness
measured = [
    ("GLMCLEHEDEKVNMYCVTDDQLINALCKLVGRHRDHQVAALSE [C24N]", -0.656),
    ("GQMCLEHEDEKVNMYCVTDDQLICALCKLVGRHRDHQVAALSE [L2Q]", 0.063),
    ("GLMCLEHEAEKVNMYCVTDDQLICALCKLVGRHRDHQVAALSE [D9A]", -0.418),
    ("GLMALEHEDEKVNMYCVTDDQLICALCKLVGRHRDHQVAALSE [C4A]", -0.699),
    ("GLMCLEHEDEKVNMYCVTDDQLICALCKLVGRHRDHQFAALSE [V38F]", 0.124),
    ("GLMCLEHEDEKVNMYCVTDDQLICALCKLVGRHRDHQHAALSE [V38H]", 0.082),
    ("GYMCLEHEDEKVNMYCVTDDQLICALCKLVGRHRDHQVAALSE [L2Y]", 0.109),
    ("KLMCLEHEDEKVNMYCVTDDQLICALCKLVGRHRDHQVAALSE [G1K]", 0.061),
    ("GLMCLEHEDEKVNMYCVTDDQLICKLCKLVGRHRDHQVAALSE [A25K]", -0.02),
    ("GLMCLNHEDEKVNMYCVTDDQLICALCKLVGRHRDHQVAALSE [E6N]", -0.226),
    ("GLMCLEHEDEKVNMYHVTDDQLICALCKLVGRHRDHQVAALSE [C16H]", -0.215),
    ("GLMCLEHEDEKVNMYCRTDDQLICALCKLVGRHRDHQVAALSE [V17R]", 0.176),
    ("GLMCLEHEDEKVNMYCVTDDQLICALCKLVGRHRDHQVTALSE [A39T]", 0.181),
    ("GLMCLEHEDEKVNMYCVTWDQLICALCKLVGRHRDHQVAALSE [D19W]", -0.779),
    ("GMMCLEHEDEKVNMYCVTDDQLICALCKLVGRHRDHQVAALSE [L2M]", 0.544),
    ("GLMCLEHEDEKVNMYCATDDQLICALCKLVGRHRDHQVAALSE [V17A]", 0.172),
    ("GLMCLEHEDEKVNMYNVTDDQLICALCKLVGRHRDHQVAALSE [C16N]", -0.183),
    ("GLMCLEHEDEKVNMYCVTDDQLICALCKLVGVHRDHQVAALSE [R32V]", -0.172),
    ("GLMCLEHEDEKVNMYCVPDDQLICALCKLVGRHRDHQVAALSE [T18P]", -0.492),
    ("GLMCLEHEDEKVNMYCVTDDQLICALPKLVGRHRDHQVAALSE [C27P]", -0.166),
    ("GLMTLEHEDEKVNMYCVTDDQLICALCKLVGRHRDHQVAALSE [C4T]", -0.078),
    ("GLMCLEHEDKKVNMYCVTDDQLICALCKLVGRHRDHQVAALSE [E10K]", 0.063),
    ("GLMCLEHEDEKVNMYCVTDDQLICALCKLVGRHRDHQQAALSE [V38Q]", -0.125),
    ("GLMCHEHEDEKVNMYCVTDDQLICALCKLVGRHRDHQVAALSE [L5H]", -0.037),
    ("GLHCLEHEDEKVNMYCVTDDQLICALCKLVGRHRDHQVAALSE [M3H]", 0.14),
    ("GLMCLEHEDEKVNMYCVTDDQLICALHKLVGRHRDHQVAALSE [C27H]", -0.481),
    ("GLMCLEHEDEKVNMYCVTDDQLICALEKLVGRHRDHQVAALSE [C27E]", -0.741),
    ("GLMCLEHEDEKVNMVCVTDDQLICALCKLVGRHRDHQVAALSE [Y15V]", -0.014),
    ("GLMCLEHEDEKVNMYCVTDDQLICALCKLVGRHRDHQVEALSE [A39E]", 0.016),
    ("GLMCLEHEDEKVNMYCVTDDQLICALCKLVGRHRDHQVAALSA [E43A]", -0.004),
    ("GLMCLEHEDEKVNMYCVTDDTLICALCKLVGRHRDHQVAALSE [Q21T]", -0.064),
    ("GLMCLEHEDEKVNMYCVTDDQLICALCKLVGRHRDKQVAALSE [H36K]", 0.034),
    ("GLMCLEHEDEKVNMYCVTDDQLICALCKLVGRHRDHQVWALSE [A39W]", -0.424),
    ("GLMCLEHEDEKVNMYCVTDDQLICALCKDVGRHRDHQVAALSE [L29D]", 0.241),
    ("GLMCLEHEDEKVNMYCITDDQLICALCKLVGRHRDHQVAALSE [V17I]", 0.235),
    ("GLMCLEHEDEKVNMYCVTDDQLICRLCKLVGRHRDHQVAALSE [A25R]", 0.099),
    ("GLMCLEHEDEKVNMYCVWDDQLICALCKLVGRHRDHQVAALSE [T18W]", -0.532),
    ("GHMCLEHEDEKVNMYCVTDDQLICALCKLVGRHRDHQVAALSE [L2H]", 0.147),
    ("GLMCLEHEDEKVNMYCGTDDQLICALCKLVGRHRDHQVAALSE [V17G]", 0.092),
    ("GLMCLEHEDEKVNMYCVTDDFLICALCKLVGRHRDHQVAALSE [Q21F]", -0.07),
    ("GLMCLEHEDEKVNMYCVTDDQLICALCKGVGRHRDHQVAALSE [L29G]", 0.213),
    ("GLMCLEHEDEKVNMYCVTDDQLICALCKLVGRHRDHQVAALSD [E43D]", -0.239),
    ("GLMCLEHEDEKVNMYCVTDDQLICALCKLVGRHADHQVAALSE [R34A]", 0.164),
    ("GLMCLEHEDEKVNMYCVTDDQLICALTKLVGRHRDHQVAALSE [C27T]", -0.571),
    ("GLMCLEHEDEKVYMYCVTDDQLICALCKLVGRHRDHQVAALSE [N13Y]", -0.108),
    ("GLMCLEHEDEKVNMYCVTDDQLISALCKLVGRHRDHQVAALSE [C24S]", -1.01),
    ("GLMCLEHEDEKVNCYCVTDDQLICALCKLVGRHRDHQVAALSE [M14C]", 0.137),
    ("GLMCLEHEDEKVNMYCVTDDQLICALCKLVGRHRDHQVAALGE [S42G]", 0.078),
    ("GLMCLEHEDEKTNMYCVTDDQLICALCKLVGRHRDHQVAALSE [V12T]", -0.149),
    ("GLSCLEHEDEKVNMYCVTDDQLICALCKLVGRHRDHQVAALSE [M3S]", 0.006),
    ("GLMCLEHEDEKVNMYCVTDDLLICALCKLVGRHRDHQVAALSE [Q21L]", -0.154),
    ("GLMCLEHEDEKVKMYCVTDDQLICALCKLVGRHRDHQVAALSE [N13K]", 0.04),
    ("GLMCLEHEDEKVCMYCVTDDQLICALCKLVGRHRDHQVAALSE [N13C]", -0.13),
    ("GLMCLEEEDEKVNMYCVTDDQLICALCKLVGRHRDHQVAALSE [H7E]", -0.433),
    ("GLMCLRHEDEKVNMYCVTDDQLICALCKLVGRHRDHQVAALSE [E6R]", -0.297),
    ("GLMCLEHEDEKVNMYCVTDDQLICALCKLVGRHRDIQVAALSE [H36I]", -0.488),
    ("GLMCLEHEDEKVNMYCVTDDQLICALCKLMGRHRDHQVAALSE [V30M]", -0.039),
    ("GLMCLEHEDEKVNMYCVTDDQLICALCKLVGRHRDLQVAALSE [H36L]", -0.753),
    ("GLMCLEHEDEKVNMYCVTDDQLICILCKLVGRHRDHQVAALSE [A25I]", -0.266),
    ("GLMCLEHEDEKVNMYCVTDGQLICALCKLVGRHRDHQVAALSE [D20G]", -0.075),
    ("GLMCAEHEDEKVNMYCVTDDQLICALCKLVGRHRDHQVAALSE [L5A]", 0.023),
    ("GLMCLEHEDEKVNMYCVTDDQLICALCKLVGRHRDHQVAALSS [E43S]", 0.058),
    ("GLMCLPHEDEKVNMYCVTDDQLICALCKLVGRHRDHQVAALSE [E6P]", -0.843),
    ("GLQCLEHEDEKVNMYCVTDDQLICALCKLVGRHRDHQVAALSE [M3Q]", -0.276),
    ("GLMCLEHEDLKVNMYCVTDDQLICALCKLVGRHRDHQVAALSE [E10L]", -0.214),
    ("GLMCLEHEDEKVNMYCVTDDQLICHLCKLVGRHRDHQVAALSE [A25H]", 0.188),
    ("GLMCLEHEDEKVNMYCVTDDQLFCALCKLVGRHRDHQVAALSE [I23F]", -0.38),
    ("GLMCLEHEDEKVNMYCVTDDQLICALCKLVGRHRDHQVAMLSE [A40M]", -0.151),
    ("GLMCLEHEDEKVNMYCVTDDQLLCALCKLVGRHRDHQVAALSE [I23L]", -0.019),
    ("GLMCLEHEDQKVNMYCVTDDQLICALCKLVGRHRDHQVAALSE [E10Q]", -0.181),
    ("GLMCLEHEDEKVNMYCVTDDQLICALCKLVGRHRDHQVATLSE [A40T]", 0.035),
    ("GLMCLEHEDEEVNMYCVTDDQLICALCKLVGRHRDHQVAALSE [K11E]", 0.033),
    ("GLMCLEHEDEKVRMYCVTDDQLICALCKLVGRHRDHQVAALSE [N13R]", -0.137),
    ("GLMCLELEDEKVNMYCVTDDQLICALCKLVGRHRDHQVAALSE [H7L]", -1.03),
    ("GLMCLEHEDEKVNFYCVTDDQLICALCKLVGRHRDHQVAALSE [M14F]", -0.451),
    ("GLMCLEHEDEKVNMYCVTDDQLICALGKLVGRHRDHQVAALSE [C27G]", -0.696),
    ("GLMCLEHEDEKVNMYCVTDDQLICALCKLVGRHRYHQVAALSE [D35Y]", -0.33),
    ("GLMCLEHNDEKVNMYCVTDDQLICALCKLVGRHRDHQVAALSE [E8N]", -0.137),
    ("GLMDLEHEDEKVNMYCVTDDQLICALCKLVGRHRDHQVAALSE [C4D]", -0.343),
    ("GLMCLEHEVEKVNMYCVTDDQLICALCKLVGRHRDHQVAALSE [D9V]", -0.086),
    ("GLMCLEHEDEKVNMYCVTDDQLRCALCKLVGRHRDHQVAALSE [I23R]", -0.237),
    ("GLMCLEHEDEKVNMYCVTDDQLIMALCKLVGRHRDHQVAALSE [C24M]", -1.02),
    ("GLMCLEHESEKVNMYCVTDDQLICALCKLVGRHRDHQVAALSE [D9S]", 0.02),
    ("GLMCLEHEDEKVNMYCVTDDQLIAALCKLVGRHRDHQVAALSE [C24A]", -0.799),
    ("GLMCLEHEHEKVNMYCVTDDQLICALCKLVGRHRDHQVAALSE [D9H]", -0.107),
    ("GLMCLEHEDEKVNMYCVTDDQLICALCKLVGRQRDHQVAALSE [H33Q]", -0.73),
    ("GLMCLEHEDEKVNMYCVTDDQLICALCKLVGRHRDSQVAALSE [H36S]", -0.533),
    ("GLMCLEHEDEKVNMYCETDDQLICALCKLVGRHRDHQVAALSE [V17E]", 0.135),
    ("GLMCLEHEDEKVNMYCVTDDQLICAKCKLVGRHRDHQVAALSE [L26K]", 0.193),
    ("GLMCLEHSDEKVNMYCVTDDQLICALCKLVGRHRDHQVAALSE [E8S]", 0.375),
    ("GLMCLEHEDEKVNMYCVTDDQLICALCKMVGRHRDHQVAALSE [L29M]", 0.086),
]

Where do these numbers come from? They come from the Human Domainome abundance scans (Beltran et al. 2025).
